Values compiled from patent US6218112A.

molecular target: plasmid nucleic acid pRSVLuc; experiment: Surface plasmon resonance (BIAcore) binding kinetics of peptides/conjugates to immobilized biotinylated plasmid DNA; details: approximate value, unit inferred; read-out: equilibrium dissociation constant KD
pKd: −log10 of the molar value.
property_measured: pKd

Exercise: What measured pKd goes with NH2-TKKAWKKAEKKAAKKCGVSAKKAAKKAWKKA-CONH2 (H-TKKAWKKAEKKAAKKCGVSAKKAAKKAWKKA-NH2) [NBC11] ?
Key: ~9.30

###

target: plasmid nucleic acid pRSVLuc; assay: Surface plasmon resonance (BIAcore) binding kinetics of peptides/conjugates to immobilized biotinylated plasmid DNA; conditions: approximate values; read-out: equilibrium dissociation constant KD
pKd: −log10 of the molar value. * marks the point of attachment. Acm = CC(=O)NC*
property_measured: pKd

Exercise: pKd lookup needed for NH2-KKSPKKAKKPAAKKSPKKAKKPAAKKSPKKAKKPAAKKSPKKAKKPAYC(Acm)-COOH (H-KKSPKKAKKPAAKKSPKKAKKPAAKKSPKKAKKPAAKKSPKKAKKPAYC(Acm)-OH) [NBC10] , thanks.
Key: ~8.30

###

tested on: plasmid nucleic acid pRSVLuc; experiment: Surface plasmon resonance (BIAcore) binding kinetics of peptides/conjugates to immobilized biotinylated plasmid DNA; conditions: apparent rate constant for association; SPR, PBS, 25° C.
* marks the point of attachment. Acm = CC(=O)NC*
property_measured: ka (M⁻¹ s⁻¹)
One number for each entry, in M⁻¹ s⁻¹.

1. NH2-KKSPKKAKKPAAKKSPKKAKKPAAKKSPKKAKKPAAKKSPKKAKKPAYC(Acm)-COOH (H-KKSPKKAKKPAAKKSPKKAKKPAAKKSPKKAKKPAAKKSPKKAKKPAYC(Acm)-OH) [NBC10]: 219000

Working through the 3 substances below one at a time, give ka for each.
1. H-TKKKKKKKKKKKKKKKKKKC-OH [NBC14]
2. NH2-TKKAWKKAEKKAAKKCGVSAKKAAKKAWKKA-CONH2 (H-TKKAWKKAEKKAAKKCGVSAKKAAKKAWKKA-NH2) [NBC11]
3. H-TRPAWRRAKRRAARRCGVSARRAARRAWRRE-OH [NBC7]

Key:
211000
20700
3670
